biological target: Cholinesterase (Homo sapiens, UniProt P06276)
Sequence (P06276 whole entry): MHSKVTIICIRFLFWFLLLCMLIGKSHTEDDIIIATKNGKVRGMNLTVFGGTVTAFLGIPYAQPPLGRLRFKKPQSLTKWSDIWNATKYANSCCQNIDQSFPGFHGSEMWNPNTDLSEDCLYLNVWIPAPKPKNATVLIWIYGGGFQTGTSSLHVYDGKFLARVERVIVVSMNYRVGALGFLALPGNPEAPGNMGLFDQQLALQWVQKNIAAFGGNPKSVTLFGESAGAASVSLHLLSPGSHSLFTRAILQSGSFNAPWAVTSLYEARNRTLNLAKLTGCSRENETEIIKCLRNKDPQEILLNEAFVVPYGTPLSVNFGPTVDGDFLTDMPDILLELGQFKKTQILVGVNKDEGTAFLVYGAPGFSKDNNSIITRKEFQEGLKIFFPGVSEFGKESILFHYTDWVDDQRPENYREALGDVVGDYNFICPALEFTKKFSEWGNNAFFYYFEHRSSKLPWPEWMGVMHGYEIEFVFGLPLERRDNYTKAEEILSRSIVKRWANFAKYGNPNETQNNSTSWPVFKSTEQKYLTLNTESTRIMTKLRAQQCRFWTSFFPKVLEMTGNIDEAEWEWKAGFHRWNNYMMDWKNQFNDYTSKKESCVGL
MEASURE: IC50 (nM)
The response must be a number in nM with no trailing unit.

Worked cases, answers included:
>  <COMPOUND>
COc1cc2c(cc1OCc1ccccc1)CCC(C)(CC(=O)NCCCCCCNc1c3c(nc4cc(Cl)ccc14)CCCC3)O2 (stereo unspecified)

>  <TESTED SYSTEM>
Cholinesterase (Homo sapiens, UniProt P06276)

>  <MEASUREMENT UNITS>
nM

>  <IC50>
201

$$$$
>  <COMPOUND>
COc1cc2c(cc1O)CCC(C)(CCNCCOCCOCCNc1c3c(nc4cc(Cl)ccc14)CCCC3)O2 (stereo unspecified)

>  <TESTED SYSTEM>
Cholinesterase (Homo sapiens, UniProt P06276)

>  <MEASUREMENT UNITS>
nM

>  <IC50>
180

$$$$
>  <COMPOUND>
COc1cc2c(cc1OCc1ccccc1)CCC(C)(CC(=O)NCCCCCCCCNc1c3c(nc4cc(Cl)ccc14)CCCC3)O2 (stereo unspecified)

>  <TESTED SYSTEM>
Cholinesterase (Homo sapiens, UniProt P06276)

>  <MEASUREMENT UNITS>
nM

>  <IC50>
100

$$$$
>  <COMPOUND>
COc1cc2c(cc1O)CCC(C)(CC(=O)NCCCCCCCCNc1c3c(nc4ccccc14)CCCC3)O2 (stereo unspecified)

>  <TESTED SYSTEM>
Cholinesterase (Homo sapiens, UniProt P06276)

>  <MEASUREMENT UNITS>
nM

>  <IC50>
5.33

$$$$

State the measured IC50 (Cholinesterase (Homo sapiens, UniProt P06276)) of COc1cc2c(cc1OCc1ccccc1)CCC(C)(CC(=O)NCCCCCCCCCNc1c3c(nc4cc(Cl)ccc14)CCCC3)O2 (stereo unspecified)
30.6

State the measured IC50 (Cholinesterase (Homo sapiens, UniProt P06276)) of COc1cc2c(cc1O)CCC(C)(CC(=O)NCCCCCCCNc1c3c(nc4cc(Cl)ccc14)CCCC3)O2 (stereo unspecified)
79.1

State the measured IC50 (Cholinesterase (Homo sapiens, UniProt P06276)) of COc1cc2c(cc1O)CCC(C)(CC(=O)NCCOCCOCCNc1c3c(nc4cc(Cl)ccc14)CCCC3)O2 (stereo unspecified)
1840

State the measured IC50 (Cholinesterase (Homo sapiens, UniProt P06276)) of COc1cc2c(cc1O)CCC(C)(CCC(=O)NCCCCCCCCNc1c3c(nc4cc(Cl)ccc14)CCCC3)O2 (stereo unspecified)
148

State the measured IC50 (Cholinesterase (Homo sapiens, UniProt P06276)) of COc1cc2c(cc1O)CCC(C)(CC(=O)NCCCCCCNc1c3c(nc4ccccc14)CCCC3)O2 (stereo unspecified)
4.99

State the measured IC50 (Cholinesterase (Homo sapiens, UniProt P06276)) of COc1cc2c(cc1O)CCC(C)(CC(=O)NCCCCCCCCCNc1c3c(nc4cc(Cl)ccc14)CCCC3)O2 (stereo unspecified)
168

State the measured IC50 (Cholinesterase (Homo sapiens, UniProt P06276)) of COc1cc2c(cc1O)CCC(C)(CC(=O)NCCCCCCCCNc1c3c(nc4cc(Cl)ccc14)CCCC3)O2 (stereo unspecified)
170

* * *

test: Intrinsic clearance in mouse liver microsomes assessed per mg protein at 5 uM by UPLC-MS/MS analysis; type: ADME, Microsome; details: read-out: CLH
MEASURE: microsomal CLint at 5 µM

Please look at this compound and report its microsomal CLint at 5 µM: COc1cc2c(cc1O)CCC(C)(CC(=O)NCCCCCCCCNc1c3c(nc4cc(Cl)ccc14)CCCC3)O2 (stereo unspecified)
13.7 µL/min/mg
